- assayedSystem: T1, human melanocortin 4 receptor (human, UniProt P32245 1-332)
- T1 construct: whole, on cells; cAMP assay on whole BHK cells; also called MC4R; human MC4 receptor
- T1 sequence (P32245 whole entry): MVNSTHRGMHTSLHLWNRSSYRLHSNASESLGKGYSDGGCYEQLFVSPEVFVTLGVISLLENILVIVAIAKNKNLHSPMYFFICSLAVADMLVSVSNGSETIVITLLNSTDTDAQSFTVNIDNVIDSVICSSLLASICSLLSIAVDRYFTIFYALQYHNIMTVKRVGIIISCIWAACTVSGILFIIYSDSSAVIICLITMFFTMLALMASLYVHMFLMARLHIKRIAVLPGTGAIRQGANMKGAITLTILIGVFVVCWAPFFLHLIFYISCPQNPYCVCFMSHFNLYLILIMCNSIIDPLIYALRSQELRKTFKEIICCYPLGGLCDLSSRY
- test: competition with 125-NDP-α-MSH, BHK human MC4R membranes
Positions of bridges follow the written chain, without caps; N, C: chain ends. Non-standard residues stand in square brackets, D forms with d.
measuredEndpoint: pKi
# pKi: negative log10 of molar concentration; output just the value

Q: What value of pKi has been recorded for this entry: cyclo(CKH[dF]HWCKH[dF]HW) (disulfide 1-7; SMILES NCCCC[C@@H]1NC(=O)[C@@H]2CSSC[C@H](NC(=O)[C@H](Cc3c[nH]c4ccccc34)NC(=O)[C@H](Cc3c[nH]cn3)NC(=O)[C@@H](Cc3ccccc3)NC(=O)[C@H](Cc3c[nH]cn3)NC1=O)C(=O)N[C@@H](CCCCN)C(=O)N[C@@H](Cc1c[nH]cn1)C(=O)N[C@H](Cc1ccccc1)C(=O)N[C@@H](Cc1c[nH]cn1)C(=O)N[C@@H](Cc1c[nH]c3ccccc13)C(=O)N2, also called c[c[Cys-Lys-His-D-Phe-His-Trp-Cys]-Lys-His-D-Phe-His-Trp]) [Chem. 52]
Result: 9.12
